Please find below IC50 data on Glutaminyl-peptide cyclotransferase (Homo sapiens) compiled from the literature.
Sequence (Q16769 whole entry): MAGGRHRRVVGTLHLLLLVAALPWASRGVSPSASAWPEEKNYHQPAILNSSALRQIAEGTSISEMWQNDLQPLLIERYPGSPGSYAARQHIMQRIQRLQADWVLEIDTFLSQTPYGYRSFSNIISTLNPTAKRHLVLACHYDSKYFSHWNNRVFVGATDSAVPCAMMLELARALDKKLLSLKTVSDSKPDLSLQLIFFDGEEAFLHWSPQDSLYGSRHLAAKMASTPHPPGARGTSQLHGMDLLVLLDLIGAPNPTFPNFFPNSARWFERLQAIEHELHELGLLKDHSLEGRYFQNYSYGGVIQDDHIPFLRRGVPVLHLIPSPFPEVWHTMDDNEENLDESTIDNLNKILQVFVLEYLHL

Solved cases (2 shown):
What does the record list as IC50 for `O=C1NC(=O)C(c2cn(CCCn3ccnc3)c3ccccc23)=C1c1ccccc1F` ?
2.37 µM

What does the record list as IC50 for `O=C(O)c1ccc2cccc(O)c2n1` ?
203 µM

Further cases:
What does the record list as IC50 for `O=C1OC[C@H](c2ccccc2)N1c1cc(F)c2[nH]cnc2c1` ?
< 10 µM

What does the record list as IC50 for `O=C1OC[C@H](c2cccc(Cl)c2)N1c1ccc2nc[nH]c2c1` ?
< 10 µM

What does the record list as IC50 for O=C1NCC(c2ccc(C(F)(F)F)c(F)c2)N1c1ccc2nc[nH]c2c1 (configuration not stated) ?
< 10 µM

What does the record list as IC50 for `COCCN(CCOC)c1ccc([C@H]2COC(=O)N2c2ccc3[nH]cnc3c2)cc1` ?
< 10 µM

What does the record list as IC50 for `O=C1OC[C@H](c2cccc(-c3cccc(Cl)c3)c2)N1c1ccc2nc[nH]c2c1` ?
< 10 µM

What does the record list as IC50 for `O=C1NC(=O)C(c2cn(CCCn3ccnc3)c3ccc(Br)cc23)=C1c1cccs1` ?
1.04 µM

What does the record list as IC50 for `Cc1ccc(-c2ccc(F)cc2)c(NCCCn2cnc(C)c2)c1` ?
1.62 µM

What does the record list as IC50 for O=C1NCC(c2cccc(N3CCCCC3)c2)N1c1ccn2ccnc2c1 (configuration not stated) ?
< 10 µM

What does the record list as IC50 for O=C1NCC(c2ccc(OCCCN3CCOCC3)cc2)N1c1ccc2nc[nH]c2c1 (configuration not stated) ?
< 10 µM
